Test target: T1, GFP-9S library array, motif 4 ND N98R (synthetic construct, N98R)
T1 chain: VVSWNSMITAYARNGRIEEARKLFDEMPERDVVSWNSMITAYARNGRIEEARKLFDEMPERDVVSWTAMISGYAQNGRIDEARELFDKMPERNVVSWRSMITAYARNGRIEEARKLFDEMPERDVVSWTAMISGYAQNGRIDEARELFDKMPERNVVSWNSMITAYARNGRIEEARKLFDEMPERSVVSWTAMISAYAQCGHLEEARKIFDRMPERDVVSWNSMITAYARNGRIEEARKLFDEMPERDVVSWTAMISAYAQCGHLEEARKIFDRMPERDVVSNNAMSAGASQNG
Protocol details: high-throughput RNA pulldown from lysate on Ni-NTA beads; HRP: 50 mM Tris pH 8, 150 mM NaCl, 1 mM beta-mercaptoethanol, 50 ug/ml BSA, 3 ug/ml yeast RNA, 0.5% heparin; ITC and FP: Tris pH 8, 200 mM KCl, 5% glycerol; MST: 50 mM Tris pH 8, 200 mM NaCl, 1 mM DTT, BSA, heparin, 0.05% Tween 20
Condition label: tags: N-terminal His-eGFP; label: 5' Cy5
Reported endpoint: Kd (nM)
Reply with just the number (in nM).

binder="AUUAGACGUGA (ssRNA) [Cy5-rpoA-G]" quantitative_readout=253

Proceeding to the next binder to report its Kd.
Asked: Please give the measured Kd for this binder: AUUACACGUGA (ssRNA) [Cy5-rpoA]
Given back: 207
